System under test: IKAROS (Homo sapiens, UniProt Q13422+Q96SW2)
Construct: endogenous in cells; host or cells: MV-4-11
Sequence (Q13422 whole entry): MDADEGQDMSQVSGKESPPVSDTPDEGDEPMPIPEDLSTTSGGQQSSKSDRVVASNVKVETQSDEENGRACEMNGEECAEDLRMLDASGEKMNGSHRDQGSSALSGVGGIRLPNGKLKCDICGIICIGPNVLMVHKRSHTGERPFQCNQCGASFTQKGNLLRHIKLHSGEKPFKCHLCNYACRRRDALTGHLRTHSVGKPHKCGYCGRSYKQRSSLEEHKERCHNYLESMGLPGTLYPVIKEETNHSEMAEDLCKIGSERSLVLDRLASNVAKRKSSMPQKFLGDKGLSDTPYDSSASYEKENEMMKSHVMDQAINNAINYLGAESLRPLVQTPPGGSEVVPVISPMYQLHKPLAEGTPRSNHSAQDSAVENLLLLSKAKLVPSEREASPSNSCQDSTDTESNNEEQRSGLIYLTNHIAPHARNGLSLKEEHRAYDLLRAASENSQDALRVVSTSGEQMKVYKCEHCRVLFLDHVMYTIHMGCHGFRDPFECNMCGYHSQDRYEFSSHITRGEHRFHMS
Sequence (Q96SW2 whole entry): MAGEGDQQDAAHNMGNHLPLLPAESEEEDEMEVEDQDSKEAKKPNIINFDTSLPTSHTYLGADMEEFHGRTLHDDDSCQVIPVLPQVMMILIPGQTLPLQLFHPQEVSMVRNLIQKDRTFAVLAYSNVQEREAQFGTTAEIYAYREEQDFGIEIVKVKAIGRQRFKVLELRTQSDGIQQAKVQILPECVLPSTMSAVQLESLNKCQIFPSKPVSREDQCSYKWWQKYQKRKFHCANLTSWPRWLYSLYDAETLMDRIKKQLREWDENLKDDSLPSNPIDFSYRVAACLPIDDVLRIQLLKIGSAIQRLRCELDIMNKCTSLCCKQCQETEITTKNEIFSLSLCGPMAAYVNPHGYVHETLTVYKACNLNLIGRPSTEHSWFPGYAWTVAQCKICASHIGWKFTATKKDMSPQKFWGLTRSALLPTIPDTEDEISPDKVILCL
Sequence (Q16531 whole entry partner): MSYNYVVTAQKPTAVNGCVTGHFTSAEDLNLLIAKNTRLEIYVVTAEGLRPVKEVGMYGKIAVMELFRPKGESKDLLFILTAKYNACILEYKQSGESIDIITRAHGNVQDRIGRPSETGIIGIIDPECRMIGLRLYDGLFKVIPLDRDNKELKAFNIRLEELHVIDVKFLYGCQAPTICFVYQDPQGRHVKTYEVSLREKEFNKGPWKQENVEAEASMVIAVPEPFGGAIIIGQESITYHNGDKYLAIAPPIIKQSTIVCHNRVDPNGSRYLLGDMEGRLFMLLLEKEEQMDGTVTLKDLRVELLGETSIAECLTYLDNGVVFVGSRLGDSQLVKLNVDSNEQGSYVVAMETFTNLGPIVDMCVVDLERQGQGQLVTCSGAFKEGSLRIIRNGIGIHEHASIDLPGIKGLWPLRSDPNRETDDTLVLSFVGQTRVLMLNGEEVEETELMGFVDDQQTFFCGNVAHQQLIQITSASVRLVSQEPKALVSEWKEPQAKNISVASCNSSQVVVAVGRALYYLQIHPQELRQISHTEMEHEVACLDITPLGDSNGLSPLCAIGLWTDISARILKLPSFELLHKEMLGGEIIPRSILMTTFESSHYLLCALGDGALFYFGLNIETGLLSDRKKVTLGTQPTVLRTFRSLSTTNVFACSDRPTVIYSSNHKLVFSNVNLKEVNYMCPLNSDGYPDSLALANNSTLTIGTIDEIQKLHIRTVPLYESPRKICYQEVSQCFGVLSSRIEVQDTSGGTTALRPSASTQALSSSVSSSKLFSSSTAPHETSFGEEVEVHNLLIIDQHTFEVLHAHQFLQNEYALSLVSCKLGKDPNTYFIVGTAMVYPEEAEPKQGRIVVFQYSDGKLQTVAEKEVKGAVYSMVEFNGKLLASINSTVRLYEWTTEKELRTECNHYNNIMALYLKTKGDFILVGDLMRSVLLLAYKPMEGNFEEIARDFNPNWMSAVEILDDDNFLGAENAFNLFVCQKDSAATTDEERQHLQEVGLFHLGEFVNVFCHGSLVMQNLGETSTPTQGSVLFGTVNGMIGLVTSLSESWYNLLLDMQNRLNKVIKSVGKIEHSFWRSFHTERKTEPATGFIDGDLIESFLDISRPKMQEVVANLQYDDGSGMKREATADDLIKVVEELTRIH
Protocol description: IKAROS degradation assay (Western blot, MV-4-11 cells)
Type: cell-based
Assay conditions: 15 μM, 6-8 hours
Value type: IKAROS % Degradation at 15 μM (%)

Previously resolved entries follow.
Cc1ccc(NC(=O)NCc2scc3c(=O)n(C4CCC(=O)NC4=O)c(C)nc23)cc1Cl (stereo not shown): 28
Cc1nc2scc(N)c2c(=O)n1C1CCC(=O)NC1=O (stereo not shown): 49

[a] Cc1nc2cscc2c(=O)n1C1CCC(=O)NC1=O (stereo not shown)
[b] Cc1ccc(NC(=O)NCc2cc3nc(C)n(C4CCC(=O)NC4=O)c(=O)c3s2)cc1Cl (stereo not shown)
Q. Which numeric IKAROS % Degradation at 15 μM is bigger, that of a or that of b ? Provide the label of your selected option as the answer.
A. b
(b: 65%, a: 0%)

====

System under test: CK1α (Homo sapiens, UniProt P48729+Q96SW2)
Construct: Whole cell extracts were prepared using RIPA buffer; endogenous in cells; host or cells: MV-4-11
Sequence (P48729 whole entry, one chain of several): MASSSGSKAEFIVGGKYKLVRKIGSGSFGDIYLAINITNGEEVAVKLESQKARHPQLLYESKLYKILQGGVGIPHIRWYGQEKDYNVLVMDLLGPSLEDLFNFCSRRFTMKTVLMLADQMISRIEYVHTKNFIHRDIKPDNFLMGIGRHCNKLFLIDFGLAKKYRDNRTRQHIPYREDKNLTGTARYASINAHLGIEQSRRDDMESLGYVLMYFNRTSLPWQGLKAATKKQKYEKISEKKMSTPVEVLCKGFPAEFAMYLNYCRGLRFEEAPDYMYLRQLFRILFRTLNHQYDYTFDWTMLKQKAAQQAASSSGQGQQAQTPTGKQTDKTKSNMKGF
Protocol description: CK1α degradation assay (Western blot, MV-4-11 cells)
Assay type: cell-based
Assay conditions: 15 μM, 6-8 hours
Value type: CK1α % Degradation at 15 μM (%)

Previously resolved entries follow.
Cc1nc2sc(Br)cc2c(=O)n1C1CCC(=O)NC1=O (centres unmarked): 8
Cc1nc2c(N)csc2c(=O)n1C1CCC(=O)NC1=O (centres unmarked): 24

[I] Cc1ccc(NC(=O)NCc2scc3c(=O)n(C4CCC(=O)NC4=O)c(C)nc23)cc1Cl (centres unmarked)
[II] Cc1ccc(NC(=O)NCc2cc3nc(C)n(C4CCC(=O)NC4=O)c(=O)c3s2)cc1Cl (centres unmarked)
Q. Which numeric CK1α % Degradation at 15 μM is bigger, that of I or that of II ? Provide the label of your selected option as the answer.
A. II
(II: 31%, I: 16%)

====

System under test: CK1α (Homo sapiens, UniProt P48729+Q96SW2)
Construct: Whole cell extracts were prepared using RIPA buffer; endogenous in cells; host or cells: MV-4-11
Protocol description: CK1α degradation assay (Western blot, MV-4-11 cells)
Assay type: cell-based
Assay conditions: 30 μM, 6-8 hours
Value type: CK1α % Degradation at 30 μM (%)

Previously resolved entries follow.
Cc1nc2c(CN)scc2c(=O)n1C1CCC(=O)NC1=O.O=C(O)C(F)(F)F (centres unmarked): 0
Cc1nc2c(N)csc2c(=O)n1C1CCC(=O)NC1=O (centres unmarked): 12
Cc1ccc(NC(=O)NCc2scc3c(=O)n(C4CCC(=O)NC4=O)c(C)nc23)cc1Cl (centres unmarked): 45

[I] Cc1ccc(NC(=O)NCc2cc3nc(C)n(C4CCC(=O)NC4=O)c(=O)c3s2)cc1Cl (centres unmarked)
[II] Cc1nc2sc(Br)cc2c(=O)n1C1CCC(=O)NC1=O (centres unmarked)
Q. In terms of reported CK1α % Degradation at 30 μM, does I or II have the smaller number? Provide the label of your selected option as the answer.
A. II
(II: 0%, I: 35%)

====

System: MV-4-11 cells
Protocol description: MV-4-11 cell viability assay (CellTiter-Glo)
Type: cell-based
Assay conditions: 30 μM; 3 days
Value type: MV-4-11 Cell Viability % DMSO at 30 μM (% DMSO)
Answer in % DMSO, number only, no unit symbol.

Previously resolved entries follow.
Cc1cc2c(=O)n(C3CCC(=O)NC3=O)c(C)nc2s1 (stereo not shown): 91
Cc1sc2nc(C)n(C3CCC(=O)NC3=O)c(=O)c2c1N (stereo not shown): 96
Cc1nc2sccc2c(=O)n1C1CCC(=O)NC1=O (stereo not shown): 94
Cc1ccc(NC(=O)NCc2scc3c(=O)n(C4CCC(=O)NC4=O)c(C)nc23)cc1Cl (stereo not shown): 0
Cc1ccc(NC(=O)NCc2cc3nc(C)n(C4CCC(=O)NC4=O)c(=O)c3s2)cc1Cl (stereo not shown): 0.73

Q. Form: Entry = Cc1nc2cc(Br)sc2c(=O)n1C1CCC(=O)NC1=O (stereo not shown) | System = MV-4-11 cells | MV-4-11 Cell Viability % DMSO at 30 μM = ____
A. 97

Q. Form: Entry = Cc1nc2c(CN)scc2c(=O)n1C1CCC(=O)NC1=O.O=C(O)C(F)(F)F (stereo not shown) | System = MV-4-11 cells | MV-4-11 Cell Viability % DMSO at 30 μM = ____
A. 78
